test: Selectivity index, ratio of CC50 for african green monkey Vero cells to MIC for Mycobacterium tuberculosis H37Rv; type: toxicity, cell-based; conditions: read-out: Selectivity Index
Give measured selectivity ratio for each item. Keep answers brief.

Worked examples, 5 compounds total:
IN: selectivity ratio lookup needed for Cn1c2ccccc2c2cc(C(=O)N3CCN(c4ccc(F)cc4)CC3)nc(-c3ccccc3)c21 , thanks.
OUT: > 19.2

IN: How about Cn1c2ccccc2c2cc(C(=O)N3CCN(c4cccc(Cl)c4Cl)CC3)nc(-c3ccccc3)c21 ?
OUT: > 33.3

IN: Next record, please: Cn1c2ccccc2c2cc(C(=O)N3CCN(Cc4ccccc4)CC3)nc(-c3ccccc3)c21
OUT: > 12.2

IN: Continue with Cn1c2ccccc2c2cc(C(=O)N3CCN(c4ccccn4)CC3)nc(-c3ccccc3)c21
OUT: > 11.4

IN: Now the compound Cn1c2ccccc2c2cc(C(=O)N3CCN(c4ccccc4Cl)CC3)nc(-c3ccccc3)c21
OUT: > 20.8

// each listed compound needs a value for selectivity ratio
1. Cn1c2ccccc2c2cc(C(=O)N3CCN(c4ccc(Cl)cc4)CC3)nc(-c3ccccc3)c21
2. Cn1c2ccccc2c2cc(C(=O)N3CCN(c4ccccc4)CC3)nc(-c3ccccc3)c21
3. Cn1c2ccccc2c2cc(C(=O)N3CCN(c4ccncc4)CC3)nc(-c3ccccc3)c21

OUT:
1: > 1.3; 2: > 4.1; 3: 4.5

IN: Suppose we examine the compound Cn1c2ccccc2c2cc(C(=O)N3CCN(c4ccccc4F)CC3)nc(-c3ccccc3)c21 ; what selectivity ratio value has been reported?
OUT: > 18.5

The reported measurements were obtained from ChEMBL document CHEMBL3734709.
